Consider the following compounds; for each one, report its pIC50.
# Method: Inhibition of GST-tagged SARS-CoV-2 main protease expressed in Escherichia coli BL21 competent cells using DABCYL-Val-Asn-Ser-Thr-Leu-Gln-Ser-Gly-Leu-Arg-Lys-EDANS as substrate measured every 10 mins for 1 hr by FRET assay
# Design: species or system Severe acute respiratory syndrome coronavirus 2
One number for each entry, as −log10 of the molar value.

* COc1ccc(F)cc1-n1[se]c2ccccc2c1=O | 5.48
* O=c1c2ccccc2[se]n1-c1c(F)cccc1F | 5.68
* COc1cc(F)ccc1-n1[se]c2ccccc2c1=O | 5.74
* CCCCCCCn1[se]c2ccccc2c1=O | 5.25
* O=c1c2ccccc2[se]n1-c1ccc(Br)cc1 | 5.56

Lab note: each compound below needs its pIC50 filled in.
1. Cc1ccccc1-n1[se]c2ccccc2c1=O
2. O=c1c2ccccc2[se]n1-c1cccc(Cl)c1
3. O=c1c2ccccc2[se]n1-c1ccc(C(F)(F)F)cc1
4. COc1ccc(Cn2[se]c3ccccc3c2=O)c(OC)c1
5. CCCCCCCCn1[se]c2ccccc2c1=O
6. O=c1c2ccccc2[se]n1Cc1ccc(F)cc1

Result:
1. 5.13
2. 6.17
3. 6.05
4. 6.21
5. 5.57
6. 6.00

---

# System: SARS-CoV-2
# Assay type: functional, organism-based, Vero E6
# Condition: Severe acute respiratory syndrome coronavirus 2, USA_WA1/2020, Vero C1008
Could you please report measured pEC50 for the items listed next?
One number for each entry, as −log10 of the molar value.

• O=c1c2ccccc2[se]n1Cc1ccc(C(F)(F)F)cc1 = 4.95

Would you be so kind as to report pEC50 for each listed record?
1. Cc1ccc(-n2[se]c3ccccc3c2=O)cc1C
2. Cc1ccccc1-n1[se]c2ccccc2c1=O

Result:
1. 4.91
2. 4.68

---

# Method: Distribution coefficient, logD of compound at pH 7.4 by shake flask method
# Assay type: physicochemical
# Condition: octanol/water
For each entry below, report its logD value.
One number for each entry.

Worked examples, 5 molecules total:
* O=c1c2ccccc2[se]n1-c1cccc(Cl)c1 | 1.53
* O=c1c2ccccc2[se]n1-c1ccccc1 | 0.92
* O=c1c2ccccc2[se]n1-c1cc(Cl)cc(Cl)c1 | 1.67
* O=c1c2ccccc2[se]n1-c1ccc(C(F)(F)F)cc1 | 3.19
* CCc1ccc(-n2[se]c3ccccc3c2=O)cc1 | 2.87

For each of the molecules below, state logD.
1. O=c1c2ccccc2[se]n1-c1ccc(Br)cc1
2. O=c1c2ccccc2[se]n1-c1cccc(C(F)(F)F)c1
3. N#Cc1cccc(-n2[se]c3ccccc3c2=O)c1

Result:
[1.46, 3.18, 1.45]

Ask: Quick one: logD for `COc1ccc(Cn2[se]c3ccccc3c2=O)c(OC)c1` ?
Result: 0.85

---

Hi there, I'd appreciate the recorded log10(EC50) for every entry that follows.
# System: SARS-CoV-2
# Format: functional, organism-based, Vero E6
# Condition: Severe acute respiratory syndrome coronavirus 2, USA_WA1/2020, Vero C1008
Base-10 log of EC50, unit µM.

Study these solved cases before continuing.
• O=c1c2ccccc2[se]n1-c1ccc(Br)cc1 = 0.72
• O=c1c2ccccc2[se]n1-c1ccc(F)cc1 = 1.22
• COc1ccc(-n2[se]c3ccccc3c2=O)cc1 = 0.23

Can you give me log10(EC50) for all of these, one by one?
1. CCc1ccc(-n2[se]c3ccccc3c2=O)cc1
2. N#Cc1cccc(-n2[se]c3ccccc3c2=O)c1
3. COc1ccc2c(=O)n(-c3ccccc3)[se]c2c1
4. CCCCCCCn1[se]c2ccccc2c1=O
5. O=c1c2ccccc2[se]n1-c1cccc(Cl)c1
6. COc1ccc(Cn2[se]c3ccccc3c2=O)c(OC)c1

Result:
1: 0.81; 2: 0.30; 3: 1.05; 4: 1.24; 5: 1.24; 6: 1.42

Required: log10(EC50), one value per compound below.
1. COc1cccc(-n2[se]c3ccccc3c2=O)c1
2. CCC(CC)COC(=O)[C@H](C)NP(=O)(OC[C@H]1O[C@@](C#N)(c2ccc3c(N)ncnn23)[C@H](O)[C@@H]1O)Oc1ccccc1 (single isomer, unassigned)
3. Cc1ccc(-n2[se]c3ccccc3c2=O)cc1
4. O=c1c2ccccc2[se]n1-c1cc(Cl)cc(Cl)c1
5. O=c1c2ccccc2[se]n1-c1ccc(C(F)(F)F)cc1
6. O=c1c2ccccc2[se]n1-c1cccc(C(F)(F)F)c1

Result:
1.18
0.26
1.19
1.26
1.05
-0.10
